target: Recombinant human mPGES-1 (Homo sapiens, UniProt O14684); construct: made in house; host or cells: CHO cells (crude microsomal fractions); experiment: In-vitro screening of mPGES-1 inhibitors (inhibition of PGE2 formation from PGH2, HTRF detection); assay type: biochemical; details: 10 μM test compound; mPGES-1 enzyme, crude microsomal fractions; read-out: Percentage inhibition at 10 μM
QUANTITY NAME: inhibition at 10 µM (%)

Example results:
COc1cc(-n2nc(-c3cc(CNC(=O)C4CC4)ccc3Cl)[nH]c2=O)ccc1NC(=O)C1CC1
98.8
COc1cc(-n2nc(-c3cc(S(=O)(=O)NC4CC4)ccc3Cl)[nH]c2=O)ccc1C(=O)Nc1cccc(C(F)(F)F)c1
89.1

1: O=C(NC1(c2ccc(C(F)(F)F)cc2)CC1)c1ccc(-n2nc(-c3c(F)cccc3Cl)[nH]c2=O)cc1
2: O=C(NCC1CC1)c1ccc(-n2nc(-c3c(F)cccc3Cl)[nH]c2=O)cc1
IN: Lower inhibition at 10 µM: 1 or 2 ? Return value: the label identifying the chosen record.
OUT: 2
(2: 44.1%, 1: 99.7%)

====

Target: Recombinant human mPGES-1 (Homo sapiens, UniProt O14684)
Construct: made in house; host or cells: CHO cells (crude microsomal fractions)
Sequence (O14684 1-152): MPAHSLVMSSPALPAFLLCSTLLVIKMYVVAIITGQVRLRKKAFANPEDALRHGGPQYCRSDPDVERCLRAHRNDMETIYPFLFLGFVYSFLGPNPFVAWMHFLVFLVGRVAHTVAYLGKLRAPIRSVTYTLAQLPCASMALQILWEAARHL
Assay: In-vitro screening of mPGES-1 inhibitors (inhibition of PGE2 formation from PGH2, HTRF detection)
Format: biochemical
Details: 10 μM test compound; mPGES-1 enzyme, crude microsomal fractions; read-out: Percentage inhibition at 10 μM
Text: In-Vitro Protocol for Screening of mPGES-1 Inhibitors: mPGES-1 (Microsomal prostaglandin E synthase-1) is a microsomal enzyme that converts endoperoxide substrate PGH2 (prostaglandin H2) to product PGE2 (prostaglandin E2) by isomerization in the presence of reduced glutathione (GSH). mPGES-1 inhibitors were screened by assessing their ability to inhibit formation of PGE2 from PGH2 in the presence of mPGES-1 using an anti-PGE2 antibody based detection method. […]
QUANTITY NAME: inhibition at 10 µM (%)

Illustrative cases are given below, each with its answer.
CC(C)(C)n1nc(-c2cc(CNC(=O)C(F)(F)F)ccc2Cl)[nH]c1=O [Example-120]
46
COc1cc(-c2nn(-c3c(Cl)cccc3Cl)c(=O)[nH]2)ccc1C#Cc1ccc(C(F)(F)F)cc1Cl [Example-75]
98.3
COc1cc(-n2nc(-c3c(F)cccc3Cl)[nH]c2=O)ccc1C#Cc1ccc(C(F)(F)F)cc1Cl [Example-61]
96.8

a: O=c1[nH]c(-c2c(F)cccc2Cl)nn1-c1ccc(-c2ccc(C(F)(F)F)nc2)cc1 [Example-2]
b: O=C(NCc1ccc(Cl)c(-c2nn(-c3ccc(C(F)(F)F)cc3)c(=O)[nH]2)c1)C(F)(F)F [Example-99]
IN: Hi, I'm comparing two records. Which one has the lower inhibition at 10 µM, a or b ? Response format: the label of the selected entry.
OUT: a
(a: 19%, b: 98.5%)

====

biological target: Recombinant human mPGES-1 (Homo sapiens); construct: made in house; host or cells: CHO cells (crude microsomal fractions); assay: In-vitro screening of mPGES-1 inhibitors (inhibition of PGE2 formation from PGH2, HTRF detection); assay type: biochemical; conditions: 10 μM test compound; mPGES-1 enzyme, crude microsomal fractions; read-out: Percentage inhibition at 10 μM
QUANTITY NAME: inhibition at 10 µM (%)

O=c1[nH]c(-c2cc(S(=O)(=O)NC3CC3)ccc2Cl)nn1-c1ccc(C(F)(F)F)cc1
68.7
CC(C)C(=O)NCc1ccc(Cl)c(-n2nc(-c3ccc(C#CC(C)(C)C)c(F)c3)[nH]c2=O)c1
94.6
Cc1cc(-n2nc(-c3cc(CNC(=O)C(C)C)ccc3Cl)[nH]c2=O)ccc1Cl
97.1
COc1cc(-c2nn(-c3c(Cl)cccc3Cl)c(=O)[nH]2)ccc1NC(=O)c1cc(F)cc(F)c1
71.1
O=C(NCc1ccc(Cl)c(-n2nc(-c3ccc(C#Cc4ccc(C(F)(F)F)cc4Cl)cc3F)[nH]c2=O)c1)C1CC1
99
COc1cc(-n2nc(-c3c(F)cccc3Cl)[nH]c2=O)ccc1C(=O)NC1(c2ccccc2C(F)(F)F)CC1
88.1
CC(C)(C)C(=O)NCc1cc(-n2nc(-c3ccc(C#CC4CC4)cc3)[nH]c2=O)c(Cl)cc1F
94.8
